Target: Recombinant ROCK1 (amino acids 1-477) (Homo sapiens)
Construct: Recombinant ROCK1 (amino acids 1-477); by word order, ROCK1 from Carna Biosciences
Sequence (Q13464 1-477): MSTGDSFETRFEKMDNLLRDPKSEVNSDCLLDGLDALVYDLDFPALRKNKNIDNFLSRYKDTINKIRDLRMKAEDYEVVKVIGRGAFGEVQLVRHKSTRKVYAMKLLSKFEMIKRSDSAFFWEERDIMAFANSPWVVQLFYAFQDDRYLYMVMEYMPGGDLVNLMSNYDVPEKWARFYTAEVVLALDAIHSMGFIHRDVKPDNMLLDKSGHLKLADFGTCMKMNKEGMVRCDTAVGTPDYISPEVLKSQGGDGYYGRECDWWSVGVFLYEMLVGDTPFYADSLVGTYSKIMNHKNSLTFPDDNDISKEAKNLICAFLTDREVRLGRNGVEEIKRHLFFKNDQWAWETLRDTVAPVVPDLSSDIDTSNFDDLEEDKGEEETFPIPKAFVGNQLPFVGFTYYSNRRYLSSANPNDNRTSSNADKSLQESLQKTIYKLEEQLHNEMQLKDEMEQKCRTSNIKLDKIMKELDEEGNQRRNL
Assay: ROCK inhibition assay, LANCE Ultra TR-FRET kinase assay (ROCK1)
Settings: 1 μM ATP, 50 nM ULight-CREBtide substrate
pIC50: −log10 of the molar value.
endpoint: pIC50

Examples with answers:
>>> df
                                   compound  value_reported
0  CN1CCN(CCNC(=O)c2cc(F)cc(Cn3ccc4cc(-c5ccnn5C)ncc4c3=O)c2)CC1    7.00 to 7.96
1  O=C(N[C@H]1C[C@H](O)C1)c1cc(F)cc(Cn2ccc3cc(N4CCOCC4)ccc3c2=O)c1          < 6.30
2  O=C(NCC1COC1)c1cc(F)cc(Cn2ccc3cc(-c4c[nH]nc4C(F)(F)F)ccc3c2=O)c1    7.00 to 7.96
3  O=C(NC1CCOCC1)c1cc(F)cc(Cn2ccc3cc(N4CCOCC4)ccc3c2=O)c1          < 6.30
4  Cc1nocc1-c1ccc2c(=O)n(Cc3cccc(C(=O)NCc4ccc(F)nc4)c3)cc(C(C)O)c2c1 (stereo not drawn)          > 8.00
5  Cc1n[nH]cc1-c1ccc2c(=O)n(Cc3cccc(C(=O)Nc4ccc(NS(C)(=O)=O)cc4)c3)ccc2c1          < 6.30

// pIC50 value for Cc1nocc1-c1ccc2c(=O)n(Cc3cccc(C(=O)NCC(F)(F)F)c3)ccc2c1 : 7.00 to 7.96

// pIC50 value for CS(=O)(=O)Nc1ccc(NC(=O)c2cccc(Cn3cnc4cc(-c5cn[nH]c5C(F)(F)F)ccc4c3=O)c2)cc1 : 6.30 to 7.00

// pIC50 value for N#Cc1cccc(C(CN)n2cnc3cc(-c4ccnc(F)c4)ccc3c2=O)c1 (stereo not drawn) : < 6.30

// pIC50 value for Cc1nocc1-c1ccc2c(=O)n(Cc3cc(F)cc(C(=O)N[C@H]4CC[C@@H](O)CC4)c3)ccc2c1 : 6.30 to 7.00

// pIC50 value for CNC(=O)c1cc(Cn2cnc3cc(-c4cn[nH]c4C(F)(F)F)ccc3c2=O)ccc1F : 7.00 to 7.96

src = patent US12064426B2
